Please provide measured viability at 72 h for the entries that follow.
Experiment: Cell viability % (MTT, normal cell line); further: test concentration or dose not given here
Conditions: human, MRC5 normal fetal lung fibroblast cells
Give bare numbers, in %.

>>> df
                                   compound   measurement_kind  meas_value
0  CC(=O)c1cccc(/N=N/c2ccc(O)c3ccccc23)c1 [Compound A4]  viability at 72 h        87.4
1  CN(C)c1ccc(/C=C/C(=O)c2cccc(/N=N/c3ccc(O)c4ccccc34)c2)cc1 [Compound C16]  viability at 72 h        92.5

Could you tell me viability at 72 h for each of these compounds? They are listed below.
1. O=C(/C=C/c1ccc(F)cc1)c1cccc(/N=N/c2ccc(O)cc2)c1 [Compound C7]
2. O=C(/C=C/c1ccc(F)cc1)c1cccc(/N=N\c2ccc(O)c(C(=O)O)c2)c1 [Compound C9]
3. CC(=O)c1cccc(/N=N/c2ccc(O)cc2O)c1 [Compound A2]

Result:
1: 82.6; 2: 90.2; 3: 90.4

###

Target: Sheep-derived COX-1 (Ovis aries)
Sequence (P05979 25-600): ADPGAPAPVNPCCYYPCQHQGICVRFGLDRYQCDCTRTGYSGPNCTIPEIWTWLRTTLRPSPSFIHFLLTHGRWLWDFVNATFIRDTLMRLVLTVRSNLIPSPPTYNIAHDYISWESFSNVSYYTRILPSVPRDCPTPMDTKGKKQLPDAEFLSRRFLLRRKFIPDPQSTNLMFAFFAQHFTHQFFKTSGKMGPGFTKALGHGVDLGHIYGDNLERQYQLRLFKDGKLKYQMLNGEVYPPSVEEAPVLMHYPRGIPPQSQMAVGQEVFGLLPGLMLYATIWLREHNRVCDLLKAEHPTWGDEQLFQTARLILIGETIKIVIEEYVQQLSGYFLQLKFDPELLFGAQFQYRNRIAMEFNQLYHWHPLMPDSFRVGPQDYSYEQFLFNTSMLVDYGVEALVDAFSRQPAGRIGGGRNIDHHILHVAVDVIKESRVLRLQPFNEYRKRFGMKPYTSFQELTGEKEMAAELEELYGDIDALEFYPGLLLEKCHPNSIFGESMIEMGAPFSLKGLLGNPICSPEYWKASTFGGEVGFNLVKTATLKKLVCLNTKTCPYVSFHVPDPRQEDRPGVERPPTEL
Experiment: Cyclooxygenase assay (PGE2 quantification), COX-1
Details: read-out: COX-1 IC50; mean ± SD; n = 3
measurement_kind: IC50 (nM)
Give bare numbers, in nM.

Problem: For the compound `CN(C)c1ccc(/C=C/C(=O)c2ccc(/N=N/c3ccc(O)c(C(=O)O)c3)cc2)cc1` , what IC50 is on record?
Result: 1900

###

Please provide measured IC50 for the entries that follow.
Target: human recombinant sPLA2-V (Homo sapiens)
Sequence (P39877 21-138): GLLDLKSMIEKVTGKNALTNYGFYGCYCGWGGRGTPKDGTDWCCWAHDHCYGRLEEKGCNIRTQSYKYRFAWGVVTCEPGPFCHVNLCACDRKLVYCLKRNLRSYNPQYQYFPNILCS
Experiment: Secretory PLA2-V activity assay (Ellman's photometric method)
One number for each entry, in µM.

Solved cases below.
                                  structure                       experimental_target  meas_value
0  O=C(/C=C/c1ccc(F)cc1)c1cccc(/N=N\c2ccc(O)c(C(=O)O)c2)c1  human recombinant sPLA2-V (Homo sapiens)        2.74
1  O=C(/C=C/c1ccc(F)cc1)c1cccc(/N=N/c2ccc(O)cc2)c1  human recombinant sPLA2-V (Homo sapiens)        24.7
2  CN(C)c1ccc(/C=C/C(=O)c2cccc(/N=N\c3c(O)ccc4ccccc34)c2)cc1  human recombinant sPLA2-V (Homo sapiens)        9.45

Problem: For the compound `CN(C)c1ccc(/C=C/C(=O)c2cccc(/N=N/c3ccc(O)cc3)c2)cc1` , what IC50 is on record?
Result: 5.06
